The measured values listed here are drawn from PubChem BioAssay (NCI).

system: PC-3 prostate; assay: NCI-60 one-dose screen, 48 h (100 = growth as untreated, 0 = no growth, -100 = all killed); conditions: 10 µM unless noted
The panel holds about 83,000 compounds, 20% with a hit somewhere; the sample as a whole holds those more often. Active and inactive are the calls of the source. Rule for the calls: active = growth percent below 10; inactive = the rest.
Each entry below lists one item and its recorded growth value.

Check out these entries, answers already filled in.
• COc1cc(NC(=O)c2cncnc2Nc2ccc3c(ccn3Cc3ccccn3)c2)cc(OC)c1 = 38.2% (inactive)
• COc1ccc(/C(C)=C(/c2ccc(OCCCN(C)C)cc2)c2ccc(OC(=O)c3ccccc3)cc2)cc1 = 73.4% (inactive)

# input for lookup
-- ask Answer briefly: growth recorded on PC-3 prostate for `O=S(=O)(NCCCNc1nccc(-c2c(-c3cccc(F)c3)nc3occn23)n1)c1ccc(F)cc1`
-- reply 29.4% (inactive)

----------
tested on: SK-MEL-5 melanoma; experiment: NCI-60 one-dose screen, 48 h; details: 10 µM unless noted
This is part of a sample that, as a whole, favours compounds with a hit. Of some 83,000 tested, about 20% had one in any assay. Active and inactive are the calls of the source. Rule for the calls: active = growth percent below 10; inactive = the rest.
Pick one and only one: active, inactive

• COC(=O)c1ccc(NC(=O)Nc2ccc(C(=O)OC)cc2)cc1 = inactive

-- ask Call for entry `C=C(C)[C@@H]1CC[C@]2(COC(C)=O)CC[C@]3(C)[C@H](CC[C@@H]4[C@@]5(C)CCCN(C(C)=O)C(C)(C)[C@@H]5CC[C@]43C)[C@@H]12` :
-- reply inactive

-- ask Call for entry `Cn1cc(-c2csc(-c3cn(CCCN4CCOCC4)c4ccccc34)n2)c2cccnc21` :
-- reply inactive

-- ask Call for entry `COc1ccc(-c2cc(-c3ccccc3)nc(N3CCN(CCNc4ccnc5cc(Cl)ccc45)CC3)n2)cc1` :
-- reply active

-- ask Call for entry `COc1ccc(/C=C/C(=O)c2cc3c(N)c(C(=O)Nc4cccc(Cl)c4C)sc3nc2C)cc1` :
-- reply active

-- ask Call for entry `Cc1ccc(S(=O)(=O)OCCCOS(=O)(=O)c2ccc(C)cc2)cc1` :
-- reply inactive

-- ask Call for entry `Cc1ccc(/C=C(\C#N)n2nnc3cc(F)c(F)cc32)cc1` :
-- reply inactive

-- ask Call for entry `Cc1ccc(/C=C/C(=O)c2ccc(-n3cc(CN4CCN(c5cc6c(cc5F)c(=O)c(C(=O)O)cn6C5CC5)CC4)nn3)cc2)cc1` :
-- reply inactive

-- ask Call for entry `O=C(Cn1nnc2ccccc21)N/N=C/c1c[nH]c2ccccc12` :
-- reply inactive

-- ask Call for entry `COc1ccc2cc(-c3ccnc4c(N=Nc5ccc(Cl)cc5)c(N)nn34)ccc2c1` :
-- reply inactive

-- ask Call for entry `CCn1cc(CNc2ccc(C(=O)Nc3cc4cc(OC)c(OC)cc4c(C)n3)cc2)cn1` :
-- reply inactive

-- ask Call for entry `CCSc1oc(C)nc1[P+](c1ccccc1)(c1ccccc1)c1ccccc1` :
-- reply active

-- ask Call for entry C=C1CC[C@@H]2[C@](C)(COC(C)=O)[C@H](OC(C)=O)CC[C@@]2(C)[C@@H]1CC(Nc1ccc(S(=O)(=O)NC(C)=O)cc1)C1=CCOC1=O (stereo not given in full) :
-- reply active

-- ask Call for entry `COc1ccc(-c2nc3c(N)c(CO)cnc3s2)cc1` :
-- reply inactive

-- ask Call for entry `COc1ccc(/C=C2\COc3ccc(O)cc3C2=O)cc1` :
-- reply inactive
